Test system: HCV2aChLuc virus
assay-protocol: In vitro HCVcc entry assay: HCV2aChLuc virus infection of Huh7 cells, Renilla luciferase read-out
Assay type: cell-based, HCV genotype 2a
assay-context: Hepatitis C virus, Huh-7, read-out: Activity class (IC50), tested according to the method of Example 3
IC50 reference

| compound | IC50 |
| --- | --- |
| Cc1ccc(-n2nc(C(C)(C)C)cc2NC(=O)C(=O)c2ccc(OCCN3CCCOCC3)c3ccccc23)cc1 [Compound 38] | > 500 nM |
| COc1c(NC(=O)C(=O)c2ccc(OCCN3CCOCC3)c3ccccc23)cc(C(C)(C)C)cc1C(=O)N1CCCCC1 [Compound 25] | 5 to 500 nM |
| O=C(Nc1cc(C(F)(F)F)ccc1Br)C(=O)c1ccc(OCCN2CCOCC2)c2ccccc12 [Compound 83] | > 500 nM |
| COC(=O)c1sc(C(C)(C)C)cc1NC(=O)C(=O)c1ccc(OCCN2CCOCC2)c2ccccc12 [Compound 11] | < 5 nM |

Reference source: patent US20110117055A1
